Measured values drawn from patent US20260007601A1 for this set.

# cell survival rate higher than that of ALC-0315 values compiled below
Test system: 293T cells
assay.explanation: Cell survival rate assay (CCK-8)
Format: cell-based
setup.conditions: difference of rates
property.label: cell survival rate higher than that of ALC-0315 (%)

sample.smiles: CCCCCCCCCCCOC(=O)CCCCCN(CCCCCCCC(=O)OC(CCCCCCCC)CCCCCCCC)CCN(C)CCO
observed: 25.97

sample.smiles: CCCCCCCCC(CCCCCCCC)COC(=O)CCCCCN(CCCCCC(=O)OCC(CCCCCCCC)CCCCCCCC)CCN(C)CCO
observed: 26.73

sample.smiles: CCCCCCCCCCOC(=O)CCCN(CCCCCC(=O)OCC(CCCCCCCC)CCCCCCCC)CCN(C)CCO
observed: 23.92

sample.smiles: CCCCCCCCCCCOC(=O)CCCCCN(CCCCCCCC(=O)OC(CCCCCCC)CCCCCCC)CCN(C)CCO
observed: 24.61

sample.smiles: CCCCCCCCCCCOC(=O)CCCCCN(CCCCCCCC(=O)OCC(CCCCCCCC)CCCCCCCC)CCN(C)CCO
observed: 26.85
